Values were extracted from patent US20160251436A1.

molecular target: T1, human Programmed Death-1 (PD-1) expressed on the cell surface (human, UniProt Q15116 25-288); test: cell binding, HEK293 cells expressing human PD-1, fluorescent anti-mouse secondary
T1 construct: whole, on cells; also called CD279; Human PD-1 Expressed on HEK293 Surface
T1 sequence (Q15116 25-288): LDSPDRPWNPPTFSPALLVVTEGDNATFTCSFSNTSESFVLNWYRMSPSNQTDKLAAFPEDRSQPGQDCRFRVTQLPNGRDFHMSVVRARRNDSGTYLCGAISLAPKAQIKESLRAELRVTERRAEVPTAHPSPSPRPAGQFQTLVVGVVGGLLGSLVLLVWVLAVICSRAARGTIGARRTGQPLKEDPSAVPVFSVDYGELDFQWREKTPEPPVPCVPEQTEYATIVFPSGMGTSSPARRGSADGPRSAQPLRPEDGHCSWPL
readoutKind: binding result

binder | result
100392_D2VH7_100393_D2VK6 (antibody, V domains shown, Mouse variable regions; cloned into pFUSE-CHIg-mG1 (murine IgG1 Fc), expressed in HEK293) VH: EVQLQESGPELVKPGASVKIPCKASGYTFTDYNMDWVKQSHGKSLEWIGDIDPNTGTTFYNQDFKGKATLTVDKSSSTAYMELRSLTSEDTAVYYCARWRSSMDYWGQGTSLTVSS VL: DIVMTQTPSSLSASLGDRVTISCSASQGISYYLNWYQQKPDGTIKLLIYYTLSLHSGVPSRFSGSGSGTDYSLTISNLEPEDIATYYCQQYSELPWTFGGGTKLEIK | binds
100392_A6VH8_100393_A6VK5 (antibody, V domains shown, Mouse variable regions; cloned into pFUSE-CHIg-mG1 (murine IgG1 Fc), expressed in HEK293) VH: EVQLQESGAELVRPGASVTLSCKASGYTFTDYEIHWVKQTPVHGLEWIGAIDPETGGTAYNQKFKGKAILTADKSSSTAYMELRSLTSEDSAVYYCTSEKFGSSYYFDYWGQGTTFTVSS VL: DIVMTQSTLSLPVSLGDQVSISCRSSQSIVHSDGNTYLEWYLQKPGQSPNLLIYKVSNRFSGVPDRFSGSGSGTDFTLKISRVEAEDLGVYYCFQGSHVPLTFGAGTKLELK | binds
100258_F6VH4_100259_F6VK1m1 (antibody, V domains shown, Mouse variable regions; cloned into pFUSE-CHIg-mG1 (murine IgG1 Fc), expressed in HEK293; also called 258F6m) VH: EVQLQESGPELVRPGASVKMSCKASGYTFTSYWMHWVKQRPGQGLEWIGMIEPSSSETSLNQKFKDKATLNVDKSSNTAYMQLSSLTSEDSAVYYCARSRGNYAYEMDYWGQGTSVTVSS VL: DIVMTQTPATMSASPGEKVTLTCSASSSVNSNYLYWYQQKPGSSPKVWIYSTSNLASGVPARFSGSGSGTSYSLTISSMEAEDAASYFCHQWSSYPPTFGSGTKLELK | binds
